- assay_method_text: Compound cytotoxicity, XTT-based colorimetric assay
- Format: cell-based
- study_conditions: human; uninfected MT2 cells, day 4, XTT; read-out: CC50
property: CC50 at 4 days

Worked examples, 4 compounds total:
{"columns": ["compound", "CC50 at 4 days"],
 "data": [
  ["Cc1cc(C2CCC(F)(F)CC2)nc2nc([C@H](Cc3cc(F)cc(F)c3)NC(=O)Cn3nc(C(F)(F)F)c4c3C(F)(F)[C@@H]3C[C@H]43)n(-c3ccc(Cl)c4c(NS(C)(=O)=O)nn(CCCN5CCOCC5)c34)c(=O)c12 (atropisomer, axis not shown; (P))", "> 50 nM"],
  ["COCCCn1nc(NS(C)(=O)=O)c2c(Cl)ccc(-n3c([C@H](Cc4cc(F)cc(F)c4)NC(=O)Cn4nc(C5CC5)c5c4C[C@@H]4C[C@H]54)nc4nc(C5CCC(F)(F)CC5)cc(CN5CC(F)(F)C5)c4c3=O)c21 (atropisomer, axis not shown; (P))", "> 20 nM"],
  ["COCCCn1nc(NS(C)(=O)=O)c2c(Cl)ccc(-n3c([C@H](Cc4cc(F)cc(F)c4)NC(=O)Cn4nc(C(F)F)c5c4C(F)(F)[C@@H]4C[C@H]54)nc4nc(C5CCC(F)(F)CC5)cc(C5CC5)c4c3=O)c21 (atropisomer, axis not shown; (P))", "> 20 nM"],
  ["COCCNc1cc(C2CCC(F)(F)CC2)nc2nc([C@H](Cc3cc(F)cc(F)c3)NC(=O)Cn3nc(C(F)F)c4c3C(F)(F)[C@@H]3C[C@H]43)n(-c3ccc(Cl)c4c(NS(C)(=O)=O)nn(CCN5CCC(F)CC5)c34)c(=O)c12 (atropisomer, axis not shown; (P))", "> 20 nM"]
]}

## Task Query: CC50 at 4 days; subject: CS(=O)(=O)Nc1nn(CCN2CC[C@@](F)(C(F)(F)F)C2)c2c(-n3c([C@H](Cc4cc(F)cc(F)c4)NC(=O)Cn4nc(C(F)F)c5c4C(F)(F)[C@@H]4C[C@H]54)nc4nc(C5CCC(F)(F)CC5)ccc4c3=O)ccc(Cl)c12 (atropisomer, axis not shown; (P))
## Result > 50 nM

## Task Any idea what CC50 at 4 days was measured for C[C@@H](CN1C[C@H](F)C[C@H](F)C1)n1nc(NS(C)(=O)=O)c2c(Cl)ccc(-n3c([C@H](Cc4cc(F)cc(F)c4)NC(=O)Cn4nc(C(F)F)c5c4C(F)(F)[C@@H]4C[C@H]54)nc4nc(C5CCC(F)(F)CC5)cc(C5CC5)c4c3=O)c21 (atropisomer, axis not shown; (P)) ?
## Result > 20 nM

## Task Consider the compound shown here: Cc1cc(C2CCC(F)(F)CC2)nc2nc([C@H](Cc3cc(F)cc(F)c3)NC(=O)Cn3nc(C(F)F)c4c3C(F)(F)[C@@H]3C[C@H]43)n(-c3ccc(Cl)c4c(NS(C)(=O)=O)nn([C@H](C)CN5CC(C)(C)OC(C)(C)C5)c34)c(=O)c12 (atropisomer, axis not shown; (P)) What is its recorded CC50 at 4 days?
## Result > 20 nM
